- Test system: 997726-040-R-J2-PDC tumor spheroids, viability;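 note: spheroids exposed to compounds for seven days before readout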
- test_protocol: Anticancer human tumor 997726-040-R-J2-PDC patient-derived squamous cell lung carcinoma cell line growth inhibition [PI3K]
- assay_context: second compound 0.0316 µM; first compound 3.16 µM; hits give low values; spheroids with HUVEC and MSC
quantity_name: viability, T/C (%)
Just the number please, in %, no unit attached.

Solved cases (5 shown):
molecule="CC(C)NCC(C(=O)N1CCN(c2ncnc3c2C(C)CC3O)CC1)c1ccc(Cl)cc1 (stereo not given) + COc1c(OCCCN2CCOCC2)ccc2c3n(c(=NC(=O)c4cnc(N)nc4)nc12)CCN3" quantity_name="viability, T/C" measurement_unit=% endpoint_result=13.3
molecule="CC1(C)CCC(Nc2ncc(C(F)(F)F)c(-c3c[nH]c4c(P(C)(C)=O)c(C#N)ccc34)n2)CN1 (stereo not given) + CC(Nc1ccc2c(c1)OCCn1cc(N3C(=O)OCC3C(F)F)nc1-2)C(N)=O" quantity_name="viability, T/C" measurement_unit=% endpoint_result=25.2
molecule="CC(Cn1ccc(-c2ccc(C#N)c(Cl)c2)n1)NC(=O)c1cc(C(C)O)[nH]n1 (stereo not given) + COc1c(OCCCN2CCOCC2)ccc2c3n(c(=NC(=O)c4cnc(N)nc4)nc12)CCN3" quantity_name="viability, T/C" measurement_unit=% endpoint_result=37.6
molecule="C#Cc1c(F)ccc2cc(O)cc(-c3ncc4c(N5CC6CCC(C5)N6)nc(OCC56CCCN5CC(F)C6)nc4c3F)c12 (stereo not given) + Cc1nc(NC(=O)N2CCCC2C(N)=O)sc1-c1ccnc(C(C)(C)C(F)(F)F)c1" quantity_name="viability, T/C" measurement_unit=% endpoint_result=77.9
molecule="Cn1nccc1Nc1nccc(-c2ccn(C(CO)c3ccc(Cl)c(F)c3)c(=O)c2)n1 (stereo not given) + CC(Nc1ncnc2nc[nH]c12)c1cc2cccc(Cl)c2c(=O)n1-c1ccccc1" quantity_name="viability, T/C" measurement_unit=% endpoint_result=64.2

C[C@@H](NC(=O)c1ncnc(N)c1Cl)c1ncc(C(=O)Nc2cc(C(F)(F)F)c(Cl)cn2)s1 + CC(Nc1ncnc2nc[nH]c12)c1cc2cccc(Cl)c2c(=O)n1-c1ccccc1 has a reported viability, T/C of 97.2

C#Cc1c(F)ccc2cc(O)cc(-c3ncc4c(N5CC6CCC(C5)N6)nc(OCC56CCCN5CC(F)C6)nc4c3F)c12 (stereo not given) + CC(Nc1ncnc2nc[nH]c12)c1cc2cccc(Cl)c2c(=O)n1-c1ccccc1 has a reported viability, T/C of 88.1

CC(Cn1ccc(-c2ccc(C#N)c(Cl)c2)n1)NC(=O)c1cc(C(C)O)[nH]n1 (stereo not given) + CC(Nc1ccc2c(c1)OCCn1cc(N3C(=O)OCC3C(F)F)nc1-2)C(N)=O has a reported viability, T/C of 63.8

CC(Cn1ccc(-c2ccc(C#N)c(Cl)c2)n1)NC(=O)c1cc(C(C)O)[nH]n1 (stereo not given) + CC(Nc1ncnc2nc[nH]c12)c1cc2cccc(Cl)c2c(=O)n1-c1ccccc1 has a reported viability, T/C of 100

CC1(C)CCC(CN2CCN(c3ccc(C(=O)NS(=O)(=O)c4ccc(NCC5CCOCC5)c([N+](=O)[O-])c4)c(Oc4cnc5[nH]ccc5c4)c3)CC2)=C(c2ccc(Cl)cc2)C1 + COc1c(OCCCN2CCOCC2)ccc2c3n(c(=NC(=O)c4cnc(N)nc4)nc12)CCN3 has a reported viability, T/C of 34.3

CNC(=O)c1ccc(N2C(=S)N(c3ccc(C#N)c(C(F)(F)F)c3)C(=O)C2(C)C)cc1F + CC(Nc1ccc2c(c1)OCCn1cc(N3C(=O)OCC3C(F)F)nc1-2)C(N)=O has a reported viability, T/C of 67.2

C=CC(=O)N1CCN(c2nc(=O)n(-c3c(C)ccnc3C(C)C)c3nc(-c4c(O)cccc4F)c(F)cc23)C(C)C1 (stereo not given) + COc1c(OCCCN2CCOCC2)ccc2c3n(c(=NC(=O)c4cnc(N)nc4)nc12)CCN3 has a reported viability, T/C of 43.2

CC1(C)CCC(CN2CCN(c3ccc(C(=O)NS(=O)(=O)c4ccc(NCC5CCOCC5)c([N+](=O)[O-])c4)c(Oc4cnc5[nH]ccc5c4)c3)CC2)=C(c2ccc(Cl)cc2)C1 + CC(Nc1ccc2c(c1)OCCn1cc(N3C(=O)OCC3C(F)F)nc1-2)C(N)=O has a reported viability, T/C of 62.9

CC(Cn1ccc(-c2ccc(C#N)c(Cl)c2)n1)NC(=O)c1cc(C(C)O)[nH]n1 (stereo not given) + Cc1nc(NC(=O)N2CCCC2C(N)=O)sc1-c1ccnc(C(C)(C)C(F)(F)F)c1 has a reported viability, T/C of 86.2

CC(C)NCC(C(=O)N1CCN(c2ncnc3c2C(C)CC3O)CC1)c1ccc(Cl)cc1 (stereo not given) + CC(Nc1ccc2c(c1)OCCn1cc(N3C(=O)OCC3C(F)F)nc1-2)C(N)=O has a reported viability, T/C of 12.4
